Experiment: small-molecule microarray binders of probe aWnt5a, primary screen, biochemical, biotinylated probe, 635/667 nm fluorescence (AID 1113);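 further: score merges 667 nm fluorescence intensity with signal-to-noise per printed feature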
Settings: higher = more signal
Measurement Type: composite z-score
Please reply with the number alone, leaving off any unit.

## Task GET /values?readout=composite z-score&item= `C=C(/C(=C/C[C@H](OC(=O)c1ccncc1)c1cccc(OCCO)c1)c1cc(C(=O)OC)ccc1OC)C(C)C`
## Result -0.169

## Task GET /values?readout=composite z-score&item= `CC(C)(C)OC(=O)CC[C@@]12N=C(c3ccc(OCCCO)cc3)O[C@@H]1c1ccccc1CN(Cc1ccccc1)C2=O`
## Result -0.0981

## Task GET /values?readout=composite z-score&item= `NCCCCCNC(=O)[C@H]1C[C@H]2C(=O)NCC(=O)N2[C@H]1c1ccc(O)cc1`
## Result -0.0981

## Task GET /values?readout=composite z-score&item= `CCCCC(=C=CC[C@H](O)c1cccc(OCCO)c1)CCO`
## Result -0.0462

## Task GET /values?readout=composite z-score&item= CCN(CC)c1ccc(N2CC=CC34O[C@@H]5C=CCOC(=O)[C@@H]5[C@H]3C(=O)N(C(CO)C(C)C)[C@@H]4C2=O)cc1 (stereo partly drawn)
## Result -0.129

## Task GET /values?readout=composite z-score&item= `CC(C)C[C@@H]1NC(=O)[C@H]2C[C@@H](C(=O)NCCCC[N+](C)(C)C)[C@@H](c3cccc(OCCO)c3)N2C1=O`
## Result -0.148

## Task GET /values?readout=composite z-score&item= `C=C(C(=O)CC[C@@H](OC(C)=O)c1ccccc1OCCO)C(C)C`
## Result -0.202

## Task GET /values?readout=composite z-score&item= `COCCCN1C(=O)[C@@]2(Cc3ccccc31)c1ccccc1C(=O)N(Cc1ccccc1Cl)[C@H]2c1ccc(CO)cc1`
## Result 0.0044
